SYSTEM UNDER TEST: haematopoietic prostaglandin D synthase (H-PGDS) (Homo sapiens, UniProt O60760)
Construct: Full length human H-PGDS cDNA (Invitrogen Ultimate ORF IOH13026) was amplified by PCR; made in house; host or cells: E. coli BL21 (DE3*), vector pET22b+
Sequence (O60760 whole entry): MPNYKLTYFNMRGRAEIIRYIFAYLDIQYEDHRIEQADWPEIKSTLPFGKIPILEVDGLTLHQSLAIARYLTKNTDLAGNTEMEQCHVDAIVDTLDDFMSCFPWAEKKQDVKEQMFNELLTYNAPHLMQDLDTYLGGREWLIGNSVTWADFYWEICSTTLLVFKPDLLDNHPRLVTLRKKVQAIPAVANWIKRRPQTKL
ASSAY NAME: H-PGDS RapidFire High Throughput Mass Spectrometry Assay
Assay type: biochemical
TEST CONTEXT: H-PGDS RapidFire MS assay, mean pIC50; read-out: Potency Range (mean pIC50) (converted)
Reported IC50 values for a set of molecules
MEASURED PARAMETER: IC50

MOLECULE	TEST RESULT
CC1CCN1c1cc2ncc(C(=O)N[C@H]3CC[C@H](C(C)(C)O)CC3)cc2cc1F (mixture of isomers) [Example 170]	10 to 79.4 nM
CC(C)(O)[C@H]1CC[C@H](NC(=O)c2cnc3cc(OC(F)F)c(F)cc3c2)CC1 [Example 51]	10 to 79.4 nM
CC(C)(O)[C@H]1CC[C@H](NC(=O)c2cnc3cc(N4CCC4)ccc3c2)CC1 [Example 194]	< 10 nM
O=C(NC1CCCOC1)c1cnc2cc(OC(F)F)c(Cl)cc2c1 (stereo not shown) [Example 149]	10 to 79.4 nM

Data origin, for the record: patent US20210238162A1
